MEASUREMENT_TARGET: PSG (PSD-95)
PROTOCOL_SUMMARY: FP displacement (competition) of FITC-15 AA CRIPT by library peptide, IC50 and Ki
RUN_CONDITIONS: read-out: IC50 (µM), PSG; FP displacement of FITC-15 AA CRIPT probe by acetylated PSD library peptide
Ends that are not written are not given here.
# YES = IC50 below 2000 µM (exclusive); NO = IC50 at/above 2000 µM

{"SUBSTANCE": "Ac-YSRQHSKLLDFDDVL [NSMF]", "LABEL_CLASS": "YES"}
{"SUBSTANCE": "Ac-YLTGAPLATSDETSI [SEM4F]", "LABEL_CLASS": "YES"}
{"SUBSTANCE": "Ac-YQARRGKKKSGSLVL [RHOA]", "LABEL_CLASS": "NO"}
{"SUBSTANCE": "Ac-YPPSSPTLSVSSTSL [KLH17]", "LABEL_CLASS": "YES"}
